Tested on: MvfR (Pseudomonas aeruginosa, UniProt Q9I4X0)
Construct: made in house
Sequence (Q9I4X0 91-332): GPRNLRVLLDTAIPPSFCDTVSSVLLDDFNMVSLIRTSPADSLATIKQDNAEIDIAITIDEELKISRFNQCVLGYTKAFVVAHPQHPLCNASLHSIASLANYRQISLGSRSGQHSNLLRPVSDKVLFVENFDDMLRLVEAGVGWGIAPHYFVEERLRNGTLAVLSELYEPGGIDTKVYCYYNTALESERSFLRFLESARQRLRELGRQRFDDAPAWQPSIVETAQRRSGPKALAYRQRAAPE
Assay info: Surface plasmon resonance (SPR) binding to purified MvfR co-inducer binding domain
Design: species or system P. aeruginosa
Test parameters: Steady State Binding Affinity KD (μM), SPR, steady state
Lab note: anything with Kd below 0.4 µM is marked T; values at 0.4 µM or higher are marked F.

{"Compound": "N#Cc1ccc(NC(=O)CC(=O)Nc2ccc(C#N)cc2)cc1 [Compound 57]", "Label value": "T"}
{"Compound": "Cc1cc(F)ccc1NCC(=O)Nc1ccc(C#N)cc1 [Compound 1]", "Label value": "F"}
{"Compound": "N#Cc1ccc(NC(=O)CC(=O)Nc2ccc(Br)cc2)cc1 [Compound 54]", "Label value": "T"}
{"Compound": "N#Cc1ccc(NC(=O)CC(=O)Nc2ccc(I)cc2)cc1 [Compound 71]", "Label value": "T"}
{"Compound": "O=C(CC(=O)Nc1ccc([N+](=O)[O-])cc1O)Nc1ccc(Oc2ccccc2)cc1 [Compound 76]", "Label value": "F"}
{"Compound": "N#Cc1ccc(NC(=O)CC(=O)Nc2ccc(Oc3ccccc3)cc2)cc1 [Compound 72]", "Label value": "F"}
{"Compound": "N#Cc1ccc(NC(=O)CC(=O)Nc2ccc(Oc3ccccc3)cc2)c(O)c1 [Compound 78]", "Label value": "F"}
{"Compound": "O=C(CC(=O)Nc1ccc([N+](=O)[O-])cc1)Nc1ccc(Oc2ccccc2)cc1 [Compound 73]", "Label value": "F"}
{"Compound": "N#Cc1ccc(NC(=O)CC(=O)Nc2ccc(Cl)cc2)cc1 [Compound 53]", "Label value": "T"}

###

System: MvfR regulon
Assay info: LC/MS quantification of HAQs and related molecules in bacterial culture supernatants
Format: cell-based, P. aeruginosa
Test parameters: Pseudomonas aeruginosa, PA14, read-out: IC50 DHQ (μM)
Quantity name: IC50 (µM)

{"Compound structure string": "N#Cc1ccc(NC(=O)CC(=O)Nc2ccc([N+](=O)[O-])cc2)cc1", "Value unit": "µM", "Measured": 11.3}
{"Compound structure string": "N#Cc1ccc(NC(=O)CC(=O)Nc2ccc(Cl)cc2)cc1", "Value unit": "µM", "Measured": 9.1}
{"Compound structure string": "N#Cc1ccc(NC(=O)CC(=O)Nc2ccc(F)cc2)cc1", "Value unit": "µM", "Measured": 33}
{"Compound structure string": "N#Cc1ccc(NC(=O)CC(=O)Nc2ccc(Br)cc2)cc1", "Value unit": "µM", "Measured": 10.1}

###

System: MvfR regulon
Assay info: pqsA gene expression (pqsA-GFP reporter)
Assay type: cell-based, P. aeruginosa
Test parameters: Pseudomonas aeruginosa, read-out: pqsA @10 uM (%), compound at 10 uM

{"Compound structure string": "N#Cc1ccc(NC(=O)CC(=O)c2ccc(F)cc2)cc1", "Value unit": "%", "activity at 10 µM": 87.4}
{"Compound structure string": "O=C(CC(=O)Nc1ccc(Oc2ccccc2)cc1)Nc1ccc(Cl)cc1", "Value unit": "%", "activity at 10 µM": 28.8}
{"Compound structure string": "N#Cc1ccc(NC(=O)CC(=O)Nc2ccccc2Br)cc1", "Value unit": "%", "activity at 10 µM": 94}
{"Compound structure string": "N#Cc1ccc(/C=C/C(=O)Nc2ccc(C#N)cc2)cc1", "Value unit": "%", "activity at 10 µM": 114}
{"Compound structure string": "Nc1cc([N+](=O)[O-])ccc1NC(=O)CC(=O)Nc1ccc(Oc2ccccc2)cc1", "Value unit": "%", "activity at 10 µM": 9.83}

###

System: MvfR regulon
Assay info: pqsA gene expression (pqsA-GFP reporter)
Assay type: cell-based, P. aeruginosa
Test parameters: Pseudomonas aeruginosa, read-out: pqsA @10 uM (%), compound at 10 uM

{"Compound": "N#Cc1ccc(NC(=O)/C=C/C(=O)Nc2ccc(F)cc2)cc1", "Tested on": "MvfR regulon", "activity at 10 µM [%]": 96.3}
{"Compound": "N#Cc1ccc(NC(=O)CC(=O)Nc2ccncc2)cc1", "Tested on": "MvfR regulon", "activity at 10 µM [%]": 88.9}
{"Compound": "O=C(Nc1ccc(Oc2ccccc2)cc1)[C@@H](F)C(=O)Nc1ccc(C(F)(F)F)cc1 (racemic)", "Tested on": "MvfR regulon", "activity at 10 µM [%]": 1.05}
{"Compound": "N#Cc1ccc(NC(=O)CC(=O)Nc2cccc(Br)c2)cc1", "Tested on": "MvfR regulon", "activity at 10 µM [%]": 64.2}
{"Compound": "N#Cc1ccc(NC(=O)CNC(=O)c2ccc(F)cc2)cc1", "Tested on": "MvfR regulon", "activity at 10 µM [%]": 11}
{"Compound": "N#Cc1ccc(NC(=O)CC(=O)Nc2ccc(N)cc2)cc1", "Tested on": "MvfR regulon", "activity at 10 µM [%]": 97.9}
{"Compound": "N#Cc1ccc(NC(=O)C(F)(F)C(=O)Nc2ccc(C#N)cc2)cc1", "Tested on": "MvfR regulon", "activity at 10 µM [%]": 95.4}
{"Compound": "N#Cc1ccc2c(c1)OCCN2C(=O)CC(=O)Nc1ccc(Oc2ccccc2)cc1", "Tested on": "MvfR regulon", "activity at 10 µM [%]": 47.3}
{"Compound": "N#Cc1ccc(NC(=O)CC(=O)Nc2ccc(Oc3ccccc3)cc2)cc1", "Tested on": "MvfR regulon", "activity at 10 µM [%]": 1.08}

###

Test system: MvfR regulon
Assay info: pqsA gene expression (pqsA-GFP reporter)
Assay type: cell-based, P. aeruginosa
Test parameters: Pseudomonas aeruginosa, read-out: pqsA @10 uM (%), compound at 10 uM

{"Molecule": "N#Cc1ccc(NC(=O)C2(C(=O)Nc3ccc(C#N)cc3)CC2)cc1 [Compound 102]", "activity at 10 µM": "93.4%"}
{"Molecule": "N#Cc1ccc(NC(=O)CC(=O)Nc2ccc(Oc3ccccc3)cc2)c(O)c1 [Compound 78]", "activity at 10 µM": "9.63%"}
{"Molecule": "N#Cc1ccc(NC(=S)CC(=S)Nc2ccc(F)cc2)cc1 [Compound 60]", "activity at 10 µM": "117%"}
{"Molecule": "Cc1cc(F)ccc1NC(=O)CC(=O)Nc1ccc(C#N)cc1 [Compound 62]", "activity at 10 µM": "110%"}
{"Molecule": "O=C(CC(=O)Nc1ccc([N+](=O)[O-])cc1)Nc1ccc(Oc2ccccc2)cc1 [Compound 73]", "activity at 10 µM": "1.95%"}
{"Molecule": "CC(=O)Nc1ccc(NC(=O)CC(=O)Nc2ccc(C#N)cc2)cc1 [Compound 68]", "activity at 10 µM": "94.2%"}
{"Molecule": "CS(=O)(=O)CNc1ccc(NC(=O)CC(=O)Nc2ccc(C#N)cc2)cc1 [Compound 70]", "activity at 10 µM": "94.7%"}
{"Molecule": "N#Cc1ccc(NC(=O)CC(=O)Nc2cccc(Cl)c2)cc1 [Compound 86]", "activity at 10 µM": "59.8%"}
{"Molecule": "CC(F)(C(=O)Nc1ccc(C#N)cc1)C(=O)Nc1ccc(C#N)cc1 [Compound 109]", "activity at 10 µM": "87%"}
{"Molecule": "N#Cc1ccc(NC(=O)CC(=O)Cc2ccc(F)cc2)cc1 [Compound 99]", "activity at 10 µM": "96.3%"}
{"Molecule": "N#Cc1ccc(NC(=O)CC(O)Cc2ccc(F)cc2)cc1 (stereo not drawn) [Compound 104]", "activity at 10 µM": "97.3%"}
{"Molecule": "N#Cc1ccc(NC(=O)C[C@H](Nc2ccc(Oc3ccccc3)cc2)C(F)(F)F)cc1 (racemic) [Compound 108]", "activity at 10 µM": "87%"}
{"Molecule": "N#Cc1ccc(NC(=O)CC(=O)N2CCc3cc(C#N)ccc32)cc1 [Compound 97]", "activity at 10 µM": "99.7%"}
{"Molecule": "CN(C(=O)CC(=O)Nc1ccc(C#N)cc1)c1ccc(C#N)cc1 [Compound 89]", "activity at 10 µM": "98.5%"}
{"Molecule": "O=C(CC(=O)Nc1ccc(Oc2ccccc2)cc1)Nc1ccc(I)cc1 [Compound 74]", "activity at 10 µM": "86%"}
{"Molecule": "N#Cc1ccc(NC(=O)CC(=O)Nc2ccc(Oc3ccccc3)cc2)c(N)c1 [Compound 107]", "activity at 10 µM": "2.1%"}
{"Molecule": "N#Cc1ccc(NC(=O)CC(=O)Nc2cccc(F)c2)cc1 [Compound 87]", "activity at 10 µM": "77.8%"}
{"Molecule": "N#Cc1ccc(NC(=O)C(F)C(=O)Nc2ccc(Oc3ccccc3)cc2)cc1 (stereo not drawn) [Compound 103]", "activity at 10 µM": "1.95%"}

###

# key: entry, value: Kd
Tested on: MvfR (Pseudomonas aeruginosa)
Construct: made in house
Assay info: Surface plasmon resonance (SPR) binding to purified MvfR co-inducer binding domain
Set-up: species or system P. aeruginosa
Test parameters: Steady State Binding Affinity KD [M], SPR, steady state

{"Compound structure string": "N#Cc1ccc(NC(=O)CC(=O)Nc2ccc(Oc3ccccc3)cc2)c(O)c1", "Tested on": "MvfR (Pseudomonas aeruginosa)", "Kd, M": "4.94e-07"}
{"Compound structure string": "N#Cc1ccc(NC(=O)CC(=O)Nc2ccc(C#N)cc2)cc1", "Tested on": "MvfR (Pseudomonas aeruginosa)", "Kd, M": "2.86e-07"}
{"Compound structure string": "Cc1cc(F)ccc1NCC(=O)Nc1ccc(C#N)cc1", "Tested on": "MvfR (Pseudomonas aeruginosa)", "Kd, M": "9.19e-06"}
{"Compound structure string": "O=C(CC(=O)Nc1ccc([N+](=O)[O-])cc1O)Nc1ccc(Oc2ccccc2)cc1", "Tested on": "MvfR (Pseudomonas aeruginosa)", "Kd, M": "4.78e-07"}
{"Compound structure string": "N#Cc1ccc(NC(=O)CC(=O)Nc2ccc(I)cc2)cc1", "Tested on": "MvfR (Pseudomonas aeruginosa)", "Kd, M": "2.59e-07"}
{"Compound structure string": "O=C(CC(=O)Nc1ccc([N+](=O)[O-])cc1)Nc1ccc(Oc2ccccc2)cc1", "Tested on": "MvfR (Pseudomonas aeruginosa)", "Kd, M": "7.55e-07"}
{"Compound structure string": "N#Cc1ccc(NC(=O)CC(=O)Nc2ccc([N+](=O)[O-])cc2)cc1", "Tested on": "MvfR (Pseudomonas aeruginosa)", "Kd, M": "3.99e-07"}
{"Compound structure string": "N#Cc1ccc(NC(=O)CC(=O)Nc2ccc(Br)cc2)cc1", "Tested on": "MvfR (Pseudomonas aeruginosa)", "Kd, M": "2.75e-07"}
{"Compound structure string": "N#Cc1ccc(NC(=O)CC(=O)Nc2ccc(Oc3ccccc3)cc2)cc1", "Tested on": "MvfR (Pseudomonas aeruginosa)", "Kd, M": "1.09e-06"}
{"Compound structure string": "N#Cc1ccc(NC(=O)CC(=O)Nc2ccc(Cl)cc2)cc1", "Tested on": "MvfR (Pseudomonas aeruginosa)", "Kd, M": "2.44e-07"}
